# assayInfo: Arterial blood gas analysis
# Type: in vivo, rabbit
# conditions: arterial blood; Infusion
quantityKind: pH
Lab note: jot down the number only; don't add units.

The examples below pair each entry with its known result.
compound="FC(F)OC(F)(F)C(F)Cl (stereo not shown)" quantitykind=pH resultnumber=7.41
compound=FCOC(C(F)(F)F)C(F)(F)F quantitykind=pH resultnumber=7.42
compound="FC(F)OC(F)C(F)(F)F (stereo not shown)" quantitykind=pH resultnumber=7.40

Next item in the queue.
### Prompt Please look up its pH: FC(F)OC(Cl)C(F)(F)F (stereo not shown)
### Response 7.40

----------
# assayInfo: Arterial blood gas analysis
# Type: in vivo, rabbit
# conditions: arterial blood; Reperfusion 2 h
quantityKind: pH
// print number alone

compound="FC(F)OC(F)(F)C(F)Cl (stereo not shown)" quantitykind=pH resultnumber=7.40
compound="FC(F)OC(Cl)C(F)(F)F (stereo not shown)" quantitykind=pH resultnumber=7.39
compound="FC(F)OC(F)C(F)(F)F (stereo not shown)" quantitykind=pH resultnumber=7.40

Now turn to the next compound.
### Prompt Any idea what pH was measured for FCOC(C(F)(F)F)C(F)(F)F ?
### Response 7.40

----------
// reported PaCO2 for each item listed
# assayInfo: Arterial blood gas analysis
# Type: in vivo, rabbit
# conditions: Memory
Answer format: numeric, mmHg implied, no suffix.

### Prompt Can you share its PaCO2? I mean this compound: FC(F)OC(Cl)C(F)(F)F (stereo not shown) [ISO, isoflurane]
### Response 36

### Prompt Also FCOC(C(F)(F)F)C(F)(F)F [SEVO, sevoflurane] ?
### Response 41

### Prompt Can you handle FC(F)OC(F)(F)C(F)Cl (stereo not shown) [ENF, enflurane] next?
### Response 30

### Prompt Another compound to look at: FC(F)OC(F)C(F)(F)F (stereo not shown) [DES, desflurane]
### Response 34

----------
// reported PaO2 per item
# assayInfo: Arterial blood gas analysis
# Assay type: in vivo, rabbit
# conditions: Memory

molecule=FCOC(C(F)(F)F)C(F)(F)F result="107 ± 11 mmHg"
molecule="FC(F)OC(F)C(F)(F)F (stereo not shown)" result="143 ± 17 mmHg"
molecule="FC(F)OC(F)(F)C(F)Cl (stereo not shown)" result="149 ± 16 mmHg"

Note: attention shifts to another entry.
### Prompt May I ask what PaO2 has been recorded for FC(F)OC(Cl)C(F)(F)F (stereo not shown) ?
### Response 146 ± 15 mmHg

----------
# assayInfo: Literature MAC values in rabbits and 1 MAC-equivalent blood concentration
# Type: in vivo
# conditions: 37° C., rabbit; x=λn
compounds and their reported 1 MAC-Equivalent Blood Concentration at 1 MAC ("x")
Express your answer in mM, writing the number without its unit.

Recorded results for 3 compounds are shown here.
compound="FC(F)OC(F)(F)C(F)Cl (stereo not shown)" resultnumber=1.995
compound=FCOC(C(F)(F)F)C(F)(F)F resultnumber=0.94
compound="FC(F)OC(Cl)C(F)(F)F (stereo not shown)" resultnumber=1.06

Turning now to a further compound:
### Prompt Need 1 MAC-Equivalent Blood Concentration at 1 MAC ("x") of FC(F)OC(F)C(F)(F)F (stereo not shown) , thanks.
### Response 1.38

----------
Measured EtCO2, listed per entry for reference.
# assayInfo: End-tidal gas analysis
# Type: in vivo, rabbit
# conditions: Infusion

Reference set (3 entries):
compound="FC(F)OC(F)(F)C(F)Cl (stereo not shown)" result="37 ± 2 mmHg"
compound="FC(F)OC(F)C(F)(F)F (stereo not shown)" result="30 ± 2 mmHg"
compound=FCOC(C(F)(F)F)C(F)(F)F result="36 ± 1 mmHg"

Now consider a different compound.
### Prompt Give the measured EtCO2 of FC(F)OC(Cl)C(F)(F)F (stereo not shown) .
### Response 34 ± 1 mmHg

----------
# assayInfo: Systemic hemodynamics during infarct experiment
# Assay type: in vivo, rabbit
# conditions: Ischemia 30 min
Reported MAP by item:
Could you write the number and then its unit?

compound="FC(F)OC(F)C(F)(F)F (stereo not shown)" result="53 ± 8 mmHg"
compound=FCOC(C(F)(F)F)C(F)(F)F result="64 ± 5 mmHg"
compound="FC(F)OC(Cl)C(F)(F)F (stereo not shown)" result="54 ± 5 mmHg"

### Prompt Which MAP is reported for this compound? FC(F)OC(F)(F)C(F)Cl (stereo not shown)
### Response 59 ± 6 mmHg

----------
This section presents molecules with their documented MAP values.
# assayInfo: Systemic hemodynamics during infarct experiment
# Format: in vivo, rabbit
# conditions: Infusion
Enter your answer as a number in mmHg; do not include the unit.

### Prompt Which measured MAP value corresponds to FC(F)OC(F)C(F)(F)F (stereo not shown) ?
### Response 67

### Prompt Again, but for FC(F)OC(F)(F)C(F)Cl (stereo not shown)
### Response 68

### Prompt Okay, and FC(F)OC(Cl)C(F)(F)F (stereo not shown) ?
### Response 57

----------
# assayInfo: Blood concentration of anesthetics by GC and conversion to MAC-equivalents
# Assay type: in vivo, rabbit
# conditions: i.v. emulsion
We begin with a simple list: items and their reported Observed Blood Concentration following 30 min, 10 mL/h Infusion.

Here is how some compounds turned out for Observed Blood Concentration following 30 min, 10 mL/h Infusion.
compound="FC(F)OC(F)(F)C(F)Cl (stereo not shown)" result="0.31 mM"
compound="FC(F)OC(F)C(F)(F)F (stereo not shown)" result="0.18 mM"
compound="FC(F)OC(Cl)C(F)(F)F (stereo not shown)" result="0.18 mM"

Switching to the query record.
### Prompt Endpoint output: Observed Blood Concentration following 30 min, 10 mL/h Infusion of FCOC(C(F)(F)F)C(F)(F)F . Value?
### Response 0.15 mM

----------
# assayInfo: Arterial blood gas analysis
# Assay type: in vivo, rabbit
# conditions: Ischemia 30 min
quantityKind: PaCO2 (mmHg)
The response must be a number in mmHg with no trailing unit.

compound="FC(F)OC(F)C(F)(F)F (stereo not shown) [DES, desflurane]" resultnumber=31

### Prompt Param item = FCOC(C(F)(F)F)C(F)(F)F [SEVO, sevoflurane] ; retrieve measured PaCO2.
### Response 40

### Prompt Cool, now FC(F)OC(F)(F)C(F)Cl (stereo not shown) [ENF, enflurane]
### Response 32

### Prompt Please do the same for FC(F)OC(Cl)C(F)(F)F (stereo not shown) [ISO, isoflurane] as well.
### Response 33

----------
# assayInfo: Systemic hemodynamics during infarct experiment
# Format: in vivo, rabbit
# conditions: Baseline
In this section we review reported MAP values for a set of molecules.
Just the number please, in mmHg, no unit attached.

Solved cases (2 shown):
molecule="FC(F)OC(F)C(F)(F)F (stereo not shown) [DES, desflurane]" valueunits=mmHg resultnumber=71
molecule="FC(F)OC(Cl)C(F)(F)F (stereo not shown) [ISO, isoflurane]" valueunits=mmHg resultnumber=64

Consider now this further molecule.
### Prompt What value of MAP has been recorded for this entry: FC(F)OC(F)(F)C(F)Cl (stereo not shown) [ENF, enflurane]
### Response 78

----------
# assayInfo: Arterial blood gas analysis
# Type: in vivo, rabbit
# conditions: arterial blood; Ischemia 30 min
Below, each entry is listed with its recorded pH.

Study these solved cases before continuing.
compound="FC(F)OC(F)(F)C(F)Cl (stereo not shown)" quantitykind=pH result="7.37 ± 0.02"
compound="FC(F)OC(Cl)C(F)(F)F (stereo not shown)" quantitykind=pH result="7.36 ± 0.02"
compound="FC(F)OC(F)C(F)(F)F (stereo not shown)" quantitykind=pH result="7.34 ± 0.01"

Consider the record given below.
### Prompt Record request: pH value, item FCOC(C(F)(F)F)C(F)(F)F
### Response 7.38 ± 0.01

----------
# assayInfo: End-tidal gas analysis
# Assay type: in vivo, rabbit
# conditions: Ischemia 30 min
Examples of molecules with documented EtCO2 follow.
Your answer should be a plain number; it is taken to be in mmHg.

molecule="FC(F)OC(F)(F)C(F)Cl (stereo not shown)" resultnumber=33
molecule="FC(F)OC(F)C(F)(F)F (stereo not shown)" resultnumber=26
molecule="FC(F)OC(Cl)C(F)(F)F (stereo not shown)" resultnumber=30

Kindly consider the entry below.
### Prompt # input molecule: FCOC(C(F)(F)F)C(F)(F)F ; wanted: its EtCO2
### Response 35

----------
# assayInfo: Systemic hemodynamics during infarct experiment
# Assay type: in vivo, rabbit
# conditions: Memory
# Experimental: Male New Zealand white rabbits weighing between 2.5 and 3.0 kg were anesthetized with intravenous sodium pentobarbital (30 mg/kg). Additional doses of pentobarbital were titrated as required to assure that pedal and palpebral reflexes were absent throughout the experiment. […] A left thoracotomy was performed at the fourth intercostal space, and the heart was suspended in a pericardial cradle. […] Hemodynamics were continuously recorded on a polygraph throughout experimentation. […]
quantityKind: MAP (mmHg)
API: value field is a number in mmHg; no unit string.

Answered examples (3):
compound="FC(F)OC(F)C(F)(F)F (stereo not shown) [DES, desflurane]" valueunits=mmHg resultnumber=58
compound="FC(F)OC(Cl)C(F)(F)F (stereo not shown) [ISO, isoflurane]" valueunits=mmHg resultnumber=62
compound="FC(F)OC(F)(F)C(F)Cl (stereo not shown) [ENF, enflurane]" valueunits=mmHg resultnumber=70

Could you now consider this next compound?
### Prompt Can you look up the measured MAP of FCOC(C(F)(F)F)C(F)(F)F [SEVO, sevoflurane] for me?
### Response 87
